# Tested on: RARg:RXRa (NR concentration 270 nM, RXRa partner concentration 90 nM)
# testName: PBM binding z-score (relative to random genomic background probes); higher = stronger binding; sequences stand for … in GC…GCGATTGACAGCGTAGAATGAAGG
Group membership follows PBM binding z-score per the scheme class 1 (below 0.8), class 2 (0.8 to below 2), class 3 (2 or more)

input: Lab note: which band did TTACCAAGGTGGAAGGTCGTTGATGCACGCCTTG land in?
output: class 1

input: Subsequent entry: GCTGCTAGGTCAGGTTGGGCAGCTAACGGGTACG
output: class 3

input: Queued: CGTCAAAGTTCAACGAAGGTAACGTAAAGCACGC
output: class 3

input: Next sequence: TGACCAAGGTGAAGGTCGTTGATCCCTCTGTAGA
output: class 2

input: Queued: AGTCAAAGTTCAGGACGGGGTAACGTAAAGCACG
output: class 3

input: Could you do the same for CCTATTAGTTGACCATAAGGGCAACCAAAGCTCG , please?
output: class 2

input: Here is the next sequence: ATCTCTGGGTAAAGATAGTTCAGTGAATGCAAAT
output: class 1

input: Also need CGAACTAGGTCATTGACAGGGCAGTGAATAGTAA , thanks.
output: class 3

input: Now this one: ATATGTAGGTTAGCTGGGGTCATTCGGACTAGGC
output: class 3

input: Continue with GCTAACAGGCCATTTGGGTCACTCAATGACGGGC
output: class 2

input: Moving on to the next sequence: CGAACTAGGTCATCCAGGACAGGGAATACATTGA
output: class 3

input: # iterate: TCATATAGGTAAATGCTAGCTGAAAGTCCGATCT
output: class 1

input: Now this one: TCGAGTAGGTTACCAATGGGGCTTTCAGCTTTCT
output: class 1

input: Please answer likewise for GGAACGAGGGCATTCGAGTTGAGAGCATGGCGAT
output: class 2

input: Here is the next sequence: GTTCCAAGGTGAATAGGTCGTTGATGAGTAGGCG
output: class 3

input: What about this sequence? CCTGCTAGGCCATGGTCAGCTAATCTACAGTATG
output: class 1

input: Moving on to the next sequence: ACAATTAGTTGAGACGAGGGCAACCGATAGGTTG
output: class 2

input: Request: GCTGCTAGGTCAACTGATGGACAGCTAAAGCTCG
output: class 3

input: Please give the result for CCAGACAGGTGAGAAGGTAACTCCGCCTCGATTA too.
output: class 1

input: Try this sequence next: TCAGAAAGGTGAAGGTAACTCAGGTACGCAGTCG
output: class 3

input: Now the sequence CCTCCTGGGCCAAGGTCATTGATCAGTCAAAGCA
output: class 3

input: Next entry: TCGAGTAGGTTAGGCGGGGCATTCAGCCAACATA
output: class 1
